In this section we review reported Ki values for a set of compounds.
target: Neuronal acetylcholine receptor; alpha4/beta2 (Rattus norvegicus, UniProt P09483+P12390); experiment: Displacement of [3H]Nicotine from alpha4beta2 nAChR in rat cortical membranes
Sequence (P09483 whole entry): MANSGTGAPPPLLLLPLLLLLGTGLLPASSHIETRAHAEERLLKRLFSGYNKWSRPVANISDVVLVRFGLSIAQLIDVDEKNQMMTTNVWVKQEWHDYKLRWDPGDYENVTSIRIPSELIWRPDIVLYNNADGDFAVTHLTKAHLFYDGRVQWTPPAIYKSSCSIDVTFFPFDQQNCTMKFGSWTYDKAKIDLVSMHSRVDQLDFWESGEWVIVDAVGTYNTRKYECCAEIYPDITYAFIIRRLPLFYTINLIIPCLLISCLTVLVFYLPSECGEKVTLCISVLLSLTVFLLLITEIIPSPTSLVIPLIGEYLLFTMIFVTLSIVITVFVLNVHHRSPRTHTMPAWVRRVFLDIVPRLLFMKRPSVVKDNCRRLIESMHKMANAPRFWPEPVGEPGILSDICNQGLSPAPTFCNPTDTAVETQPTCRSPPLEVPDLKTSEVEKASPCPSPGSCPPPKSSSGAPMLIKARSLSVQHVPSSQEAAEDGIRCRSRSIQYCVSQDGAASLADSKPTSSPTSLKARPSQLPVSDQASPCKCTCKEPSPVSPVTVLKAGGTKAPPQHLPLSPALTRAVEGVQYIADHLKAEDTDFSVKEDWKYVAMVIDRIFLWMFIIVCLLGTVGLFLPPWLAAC
Sequence (P12390 whole entry): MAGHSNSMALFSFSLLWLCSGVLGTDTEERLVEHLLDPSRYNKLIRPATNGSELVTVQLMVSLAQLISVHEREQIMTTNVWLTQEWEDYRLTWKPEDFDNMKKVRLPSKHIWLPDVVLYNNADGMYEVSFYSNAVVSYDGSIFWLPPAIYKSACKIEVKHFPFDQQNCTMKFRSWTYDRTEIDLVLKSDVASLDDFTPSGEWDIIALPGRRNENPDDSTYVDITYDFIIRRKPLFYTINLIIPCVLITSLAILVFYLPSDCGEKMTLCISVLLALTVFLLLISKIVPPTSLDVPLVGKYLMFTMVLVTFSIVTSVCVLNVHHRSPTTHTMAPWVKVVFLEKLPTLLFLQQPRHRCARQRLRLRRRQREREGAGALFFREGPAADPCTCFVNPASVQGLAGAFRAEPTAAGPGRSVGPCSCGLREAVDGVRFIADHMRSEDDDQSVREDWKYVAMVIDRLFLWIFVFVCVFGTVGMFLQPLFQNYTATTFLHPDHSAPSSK
A complete answer gives the number and then names the unit.

input: Test system Neuronal acetylcholine receptor; alpha4/beta2 (Rattus norvegicus, UniProt P09483+P12390); read-out Ki; what value for Clc1ccc(C2CC3CC2CN3)cn1 (racemic; form 2) ?
output: 0.056 nM

input: Test system Neuronal acetylcholine receptor; alpha4/beta2 (Rattus norvegicus, UniProt P09483+P12390); read-out Ki; what value for Clc1ccc(C2CC3CNC2C3)cn1 (racemic; form 2) ?
output: 40 nM

input: Test system Neuronal acetylcholine receptor; alpha4/beta2 (Rattus norvegicus, UniProt P09483+P12390); read-out Ki; what value for Clc1ccc(C2CC3CNC2C3)cn1 (racemic; form 1) ?
output: 0.045 nM

input: Test system Neuronal acetylcholine receptor; alpha4/beta2 (Rattus norvegicus, UniProt P09483+P12390); read-out Ki; what value for Clc1ccc(C2CC3CCCC2N3)cn1 (racemic) [(+/-)-HOMOEPIBATIDINE] ?
output: 0.23 nM

Where these numbers come from: ChEMBL document CHEMBL1139697
